Target: human DGKα (Homo sapiens, UniProt P23743)
Construct: TVMV protease cleavage site (C); Hexa-His (C)
Sequence (P23743 with tags, fused parts or gaps): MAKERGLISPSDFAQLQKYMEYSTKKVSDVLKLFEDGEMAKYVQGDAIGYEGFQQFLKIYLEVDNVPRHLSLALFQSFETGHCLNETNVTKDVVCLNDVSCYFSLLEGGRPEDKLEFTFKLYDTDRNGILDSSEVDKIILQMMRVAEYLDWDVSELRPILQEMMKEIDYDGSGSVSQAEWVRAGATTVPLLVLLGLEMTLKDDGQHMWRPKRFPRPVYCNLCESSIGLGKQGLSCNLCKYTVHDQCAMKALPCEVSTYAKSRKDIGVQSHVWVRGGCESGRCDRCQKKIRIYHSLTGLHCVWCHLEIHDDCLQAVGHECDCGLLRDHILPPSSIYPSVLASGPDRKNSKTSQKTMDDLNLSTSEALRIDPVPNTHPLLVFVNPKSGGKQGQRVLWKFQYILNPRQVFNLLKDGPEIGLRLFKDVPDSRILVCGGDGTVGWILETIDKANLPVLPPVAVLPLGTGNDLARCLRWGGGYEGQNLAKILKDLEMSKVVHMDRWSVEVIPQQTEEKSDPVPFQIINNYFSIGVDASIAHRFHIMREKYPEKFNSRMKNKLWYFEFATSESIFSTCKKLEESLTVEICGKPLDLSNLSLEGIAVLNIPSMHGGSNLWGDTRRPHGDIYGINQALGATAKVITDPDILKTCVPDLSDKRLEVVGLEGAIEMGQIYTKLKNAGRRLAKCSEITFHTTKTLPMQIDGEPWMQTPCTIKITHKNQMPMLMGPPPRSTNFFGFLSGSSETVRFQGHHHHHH
Test: In vitro DGK inhibition assay, DGKα liposome (LIPGLO) assay
Conditions: read-out: Enzyme Inhibition DGKalpha IC50
Experimental: The DGKα and DGKζ reactions were performed using either extruded liposome (DGKα and DGKζ LIPGLO assays) or detergent/lipid micelle substrate (DGKα and DGKζ assays). The reactions were carried out in 50 mM MOPS pH 7.5, 100 mM NaCl, 10 mM MgCl2, 1 μM CaCl2, and 1 mM DTT (assay buffer). The reactions using a detergent/lipid micelle substrate also contained 50 mM octyl B-D-glucopyranoside. The lipid substrate concentrations were 11 mM PS and 1 mM DAG for the detergent/lipid micelle reactions. […]
For each record, write down the corresponding pIC50.
A value of pIC50 is the negative decimal logarithm of a concentration given in moles per litre.

// `CN(C)C(=O)c1cccc(-c2cccc(N(CC3CC3)c3cc(=O)n(C)c4ccc(C#N)nc34)c2)c1` : pIC50 value = 4.36

Just so you know, measured pIC50 for CC(C1CC1)N(C)c1cc(=O)n(C)c2ccc(C#N)nc12 (racemic) came out at 5.85

The compound listed as `Cn1c(=O)cc(N(CC2CC2)c2ccc(-c3cccc(O)c3)cc2)c2nc(C#N)ccc21` has a reported pIC50 of 5.42

Sample `C#CCn1c(=O)c(C#N)c(N(C)C2CCCCC2)c2nc(C#N)ccc21` ; pIC50 observed: 5.70

Documented pIC50 of `Cn1c(=O)cc(N(CC2CC2)c2ccc3occc3c2)c2nc(C#N)ccc21` : 5.72

For record `Cn1c(=O)cc(N(CC2CC2)c2cccc(-c3ccc(C(N)=O)cc3)c2)c2nc(C#N)ccc21` the listed pIC50 is 6.92

Summary for this compound, `CCCN(CC1CC1)c1nc(=O)n(C)c2ccc(Cl)nc12` : pIC50 is 6.00

Briefly, pIC50 measured for `Cn1c(=O)cc(N(CC2CC2)c2ccc(C3CCC3)cc2)c2nc(C#N)ccc21` : 5.03

Where these numbers come from: patent US20260049076A1
